System: A549 NSCLC
Test: NCI tumour cell line growth inhibition, 48 h
metricName: TGI (µM)

>  <compound>
Cc1ccc(NC(c2ccccc2)c2ccc3cccnc3c2O)cc1 (centres undefined)

>  <comparator>
=

>  <measured>
41.3

$$$$
>  <compound>
Cc1cc2c(cc1C)NC(=O)C(NC(=O)/C=C/c1ccccc1)C=N2 (centres undefined)

>  <comparator>
>

>  <measured>
100

$$$$
>  <compound>
CC(C)(C)[OH+][O-].[O-]c1ccc(Cl)cc1C=Nc1ccc(Cl)cc1[O-].[O]=[V]

>  <comparator>
>

>  <measured>
100

$$$$
>  <compound>
C=C1C(=O)O[C@@H]2C[C@@H]1CC[C@]1(C)O[C@H]1CC[C@@]1(C)O[C@@H]1CC[C@@]2(C)O

>  <comparator>
>

>  <measured>
100

$$$$
>  <compound>
CCCc1c2c([nH]c(=O)c1C)C(=O)c1[nH]c(=O)c(C)c(CCC)c1C2=O

>  <comparator>
=

>  <measured>
72.7

$$$$
>  <compound>
CC[C@@H]1C[C@@H]2CN3CCc4c([nH]c5ccc(OC)cc45)C(COC(=O)c4ccc(OC)c(OC)c4)(C2)C13

>  <comparator>
>

>  <measured>
100

$$$$
>  <compound>
CC(C)C(C(=O)O)N(CC1(O)OCC(O)C(O)C1O)N=O (centres undefined)

>  <comparator>
>

>  <measured>
100

$$$$
>  <compound>
CCCCCCCCC[C@@H]1C[C@@H]2CCC3C(C(=O)OC)=C(C)NC(=N1)N32 (some centres undefined)

>  <comparator>
=

>  <measured>
32.6

$$$$
>  <compound>
COc1ccc(-c2ccc(C3CC(c4ccc(O)cc4)=NN3)o2)c([N+](=O)[O-])c1 (centres undefined)

>  <comparator>
=

>  <measured>
84

$$$$
